system: OVCAR-4 ovarian; experiment: NCI-60 one-dose screen, 48 h (100 = growth as untreated, 0 = no growth, -100 = all killed); conditions: 10 µM
The panel holds about 83,000 compounds, 20% with a hit somewhere; the sample as a whole holds those more often.
Reported Property: growth (%)

1. CC1=CC[C@@H]2C(C)(C)C(=O)CC[C@@]2(C)[C@@H]1COc1ccc2ccc(=O)oc2c1
23.1
2. Cn1cc(-c2noc(C(=O)c3cn(C)c4ncc(Br)cc34)n2)c2ccccc21
100
3. CCCCC(CCCCCC(CCCC)C1NC(C)Cc2cc(OC)c(OC)cc21)C1NC(C)Cc2cc(OC)c(OC)cc21 (stereo not drawn)
-90.1
4. COCCCNc1nc(NC(=O)c2cc(Br)cc(C(F)(F)F)c2)cc(-c2cccnc2)n1
92.3
5. CCn1cc(-c2ccnc(NCCNS(=O)(=O)c3cccc4ccccc34)c2)c(-c2cccc(O)c2)n1
99.9
6. COc1cc(-c2nc(SCCC(C)C)nc(Nc3ccc(S(N)(=O)=O)cc3)c2C#N)cc(OC)c1OC
19.8
7. CC(C)OC(=O)Nc1cc(F)c(F)cc1F
103
8. CCc1ccc(NC(=O)N[C@@H](Cc2cc(F)cc(F)c2)C(=O)N[C@@H]2C(=O)N3C[C@H](O)C[C@H]3C(=O)N3CCOC[C@H]3C(=O)N[C@@H](C)C(=O)N3C[C@H](C)C[C@H]3C(=O)O[C@H]2C)cc1
12.8

====

test system: NCI-H522 lung; test: NCI-60 one-dose screen, 48 h (100 = growth as untreated, 0 = no growth, -100 = all killed); conditions: 10 µM unless noted
The panel holds about 83,000 compounds, 20% with a hit somewhere; the sample as a whole holds those more often. Active and inactive are the calls of the source. How the source made its calls: active means growth percent below 10; inactive means the rest.
Reported Property: growth

1. COc1cc2c(cc1OCCCCCOc1ccc(-n3c(C)nc4ccccc4c3=O)cc1)N=C[C@@H]1CCCN1C2=O
-33.5% (active)
2. Nc1cc(Cl)cc2cccnc12
96.7% (inactive)
3. Cc1cccc(C[C@H](NC(=O)Nc2ccc(Cl)cc2F)C(=O)N[C@@H]2C(=O)N3C[C@H](O)C[C@H]3C(=O)N3CCN(C)C[C@H]3C(=O)N[C@@H](C)C(=O)N3C[C@H](C)C[C@H]3C(=O)O[C@H]2C)c1
33.2% (inactive)
4. C#CCC(C(=O)OCC)C(=O)OCC
99.1% (inactive)
5. COc1ccc2c(c1)C(C)Cc1c(ncnc1-n1cnc3ccccc31)N2C (stereo not drawn)
-18.9% (active)
6. CCCCCCCCN(CCCCCCCC)CC(O)c1ccc(Cl)c(C)c1Cl (stereo not drawn)
65.6% (inactive)
7. O=C(Nc1ccc(Oc2ccc(F)cc2)c(Cl)c1)c1cccnn1
61.8% (inactive)
8. O=C(N/N=C/c1c(Cl)cccc1Cl)c1cccc(Nc2ccnc(C(F)(F)F)c2)c1
87% (inactive)
9. CC(C)C1=NOC(=O)C1=Cc1cn(-c2cccnc2)nc1-c1ccccc1
82.7% (inactive)
10. CC[C@]1(O)CC2CN(CCc3c([nH]c4ccccc34)[C@@](C(=O)OC)(c3cc4c(cc3OC)N(C=O)[C@H]3[C@@](O)(C(=O)OC)[C@H](OC(C)=O)[C@]5(CC)C=CCN6CC[C@]43[C@@H]65)C2)C1 (stereo partly drawn)
-21.5% (active)
11. Cc1ccc(C2=C/C(=C/c3ccc(Br)cc3)C(=O)N2CCc2ccc(S(N)(=O)=O)cc2)cc1
89% (inactive)
12. Cn1cc(-c2noc(-c3cn(C)c4ncc(Br)cc34)n2)c2cc(Cl)ccc21
63.1% (inactive)
13. CC1(C)CC(=O)c2c(ccc(C(=O)C[C@@H](N)CO)c2N)O1
20.1% (inactive)
14. C=C(C)[C@@H]1CC[C@]2(C(=O)NCCCN)CC[C@]3(C)[C@H](CC[C@@H]4[C@@]5(C)CC[C@H](O)C(C)(C)[C@@H]5CC[C@]43C)[C@@H]12
-17% [100 µM] (active)
15. Cc1cc(SC#N)ncn1
92.3% (inactive)
16. CC1(C)S[C@@H]2[C@H](NC(=O)[C@H](C(=O)O)c3cccs3)C(=O)N2[C@H]1C(=O)O
75.8% (inactive)
17. CCc1ccc(-c2ccc(COc3ccc(CC4SC(=O)NC4=O)cc3)cc2)cc1 (stereo not drawn)
45.5% (inactive)
18. CN(C)c1cc(NN=C(c2ccc(O)cc2)c2ccc(O)cc2)c([N+](=O)[O-])cc1[N+](=O)[O-]
1.73% (active)

====

tested on: EKVX NSCLC; test: NCI-60 one-dose screen, 48 h; conditions: 10 µM unless noted
About 83,000 compounds went through this panel and 20% of them were active in at least one assay; those are over-represented in the sample as a whole. The source made the active and inactive calls. How the source made its calls: active means growth percent below 10; inactive means the rest.
Outcomes: 1 (active), 0 (inactive)

1. CC1(C)CC[C@]2(C(=O)O)CC[C@]3(C)[C@H](CC[C@@H]4[C@@]5(C)CCC(=O)C(C)(C)[C@@H]5CC[C@]43C)[C@H]2[C@H]1OC(=O)C(F)(F)F
1
2. O=C(Nc1ccc(Oc2ccc(F)cc2)c(Cl)c1)c1cnccn1
0
3. Ic1ccc2[nH]cc(SSc3c[nH]c4ccc(I)cc34)c2c1
0
4. CCOC(=O)C(c1ccccc1)N1C(=O)c2ccccc2C1=O (stereo not given)
0
5. CSc1nc(=S)c2nc(SC)n(-c3ccccc3)c2[nH]1
0
6. COc1ccc(-c2nc3ccccn3c2/C=C/C(=O)c2cc(OC)c(OC)c(OC)c2)cc1OC
0
7. O=C(O)c1ccccc1C(F)(F)F
0
8. O=C(Nc1ccc(Nc2ccncc2)cc1)c1ccc([N+](=O)[O-])cc1
0
9. Cn1cc(-c2noc(-c3cn(C)c4ncc(F)cc34)n2)c2cc(Br)ccc21
0
10. c1ccc(-c2nc(N3CCCNCC3)c3nc(-c4ccccc4)oc3n2)cc1
0
11. COc1cc(C)cc2oc3oc(=O)c(C(=O)c4cc5cc(Br)ccc5o4)cc3c(=O)c12
0
12. CC1(C(=O)O)CCC(N)(C(=O)O)C1(C)C (stereo not given)
0
13. N#Cc1c(Cl)nc(SCC2CO2)nc1-c1ccccc1 (stereo not given)
0
14. O=c1[nH]c(CN2CCN(c3cccc(Cl)c3)CC2)nc2cc(Cl)ccc12
0
15. COc1cc2c(c(OC)c1OC)-c1ccc(NNC(N)=S)c(=O)cc1[C@@H](NC(C)=O)CC2
0
16. Nc1nc(N)c2c(n1)NC(c1ccc(F)cc1)C1CCc3ccccc3C1=N2 (stereo not given)
0
17. CCOC(=O)Nc1ccc2c(c1)/C(=N\NC(=S)NC)c1ccccc1-2
0
18. COc1ccc2c(c1)c(-c1noc(C(=O)c3cn(C)c4ncc(Br)cc34)n1)cn2C
0
19. CC(C)C1=NOC(=O)C1=Cc1cn(-c2ccco2)nc1-c1ccccc1
0
20. CCOc1cc(NC(=O)c2ccccc2)c(OCC)cc1N
0
21. C#C[C@]1(O)CC[C@H]2[C@@H]3CC=C4c5nc(Nc6ccccc6[N+](=O)[O-])sc5CC[C@]4(C)[C@H]3CC[C@@]21C
0
22. O=C1/C(=C\c2cccn2Cc2ccccc2)c2ccccc2N1c1c(Cl)cccc1Cl
0
23. CCCCC1COc2cccc3c2N1C=C/C3=C\C(=O)n1ccc2ccccc21 (stereo not given)
0
24. C[C@H]1[C@H](C)CC[C@]2(C(=O)O)CC[C@]3(C)C(=CC[C@@H]4[C@@]5(C)C/C(=C/c6ccco6)C(=O)C(C)(C)[C@@H]5CC[C@]43C)[C@H]12
1
25. COc1ccc(NC(=O)Nc2ccc(-c3cccnc3)cc2N2CCC(CO)CC2)cc1
0
26. COc1ccc2nc3c(cc2c1)C(=O)CC(C(F)(F)F)C3 (stereo not given)
0
27. Cc1ccc(Oc2c(/C=N/NC(=O)Cn3c(=O)sc4ccccc43)c(C)nn2-c2ccccc2)cc1
0
28. C[C@H]1[C@H](C)CC[C@]2(C(=O)O)CC[C@]3(C)C(=CC[C@@H]4[C@@]5(C)C/C(=C/c6cccnc6)[C@H](O)C(C)(C)[C@@H]5CC[C@]43C)[C@H]12
0
29. CCOc1ccc(/C=C(\C#N)c2cc3ccccc3[nH]2)cc1
0
30. O=c1[nH]c2cc(Cl)c(Cl)cc2n2cc3ncccc3c12
0
31. C[n+]1cccc(NC(=O)c2ccc3ccc4ccc(C(=O)Nc5ccc[n+](C)c5)nc4c3n2)c1
0
32. O=C1Cc2c(sc3c(F)cccc23)C(c2ccccc2[N+](=O)[O-])N1 (stereo not given)
0
33. CCc1ccc(-c2ccc(COc3ccc(CC4SC(=O)NC4=O)cc3)cc2)cc1 (stereo not given)
0
34. CCn1cc(-c2[nH]c(=S)ncc2-c2ccc(Cl)cc2)c(-c2ccc(Br)cc2)n1
0
35. c1coc2occoc=2o1
0
36. COc1cc(-c2nc(SCCC(C)C)nc(Nc3ccc(S(N)(=O)=O)cc3)c2C#N)cc(OC)c1OC
0
37. CC1Cc2ccc(OCCN(C)C)cc2C1=O (stereo not given)
0
38. O=C(CCNCc1ccccc1)c1ccccc1
0
39. COC(=O)[C@H](CC(C)C)NC(=O)NC(=O)NC(=O)CI
0
40. COc1ccc(/C=C/C=C\C(=O)c2ccc(-n3ccnc3)cc2)cc1
0

Source: PubChem BioAssay (NCI)
